The origin of these recorded values is patent US20240122941A1.

Items are presented alongside their recorded cell survival rate (%) at treatment with 10 μM, H23.
# System: H23 cells (pulmonary adenocarcinoma derived, SMARCA2/A4 deficient)
# assay_notes: Cell growth suppression experiment (CellTiter-Glo), H23 cells;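 further: compounds tested as CBP/P300 agents, added one day after plating in 96-well plates with DMEM-F12 plus 10% fetal bovine serum, 0.1% DMSO final, luminescent viability read-out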
# Format: cell-based
# condition_parameters: 10 μM, 6 days
value_type: cell survival rate (%) at treatment with 10 μM, H23

>  <compound>
CNC(=O)Cn1cc(-c2ccc3c(c2)C(F)CC32NC(=O)N(CC(=O)N(Cc3ccc(F)cc3)[C@@H](C)C(F)(F)F)C2=O)cn1 (single isomer, unassigned) [Compound 3]

>  <assayed_system>
H23 cells (pulmonary adenocarcinoma derived, SMARCA2/A4 deficient)

>  <result>
49%

$$$$
>  <compound>
COC(=O)N1c2ccc3c(nc(Cc4ccccc4)n3[C@@H]3CCC[C@@H](C(=O)O)C3)c2CC[C@@H]1C [Compound 11]

>  <assayed_system>
H23 cells (pulmonary adenocarcinoma derived, SMARCA2/A4 deficient)

>  <result>
75%

$$$$
>  <compound>
Cn1cc(C(=O)Nc2ccc3c(c2)OCCO3)c2ccccc2c1=O [Compound 12]

>  <assayed_system>
H23 cells (pulmonary adenocarcinoma derived, SMARCA2/A4 deficient)

>  <result>
97%

$$$$
>  <compound>
CNC(=O)Cn1cc(-c2ccc3c(c2)C(F)CC32NC(=O)N(CC(=O)N(Cc3ccc(F)cc3)[C@@H](C)C(F)(F)F)C2=O)cn1 (single isomer, unassigned) [Compound 2]

>  <assayed_system>
H23 cells (pulmonary adenocarcinoma derived, SMARCA2/A4 deficient)

>  <result>
99%

$$$$
>  <compound>
CNC(=O)Cn1cc(-c2ccc3c(c2)C(F)CC32NC(=O)N(CC(=O)N(Cc3ccc(F)cc3)[C@@H](C)C(F)(F)F)C2=O)cn1 (single isomer, unassigned) [Compound 1]

>  <assayed_system>
H23 cells (pulmonary adenocarcinoma derived, SMARCA2/A4 deficient)

>  <result>
52%

$$$$
>  <compound>
COC(=O)N1c2ccc3c(nc(Cc4ccccc4)n3[C@H]3CCC[C@H](C(=O)O)C3)c2CC[C@@H]1C [Compound 10]

>  <assayed_system>
H23 cells (pulmonary adenocarcinoma derived, SMARCA2/A4 deficient)

>  <result>
53%

$$$$
>  <compound>
CC(=O)N1CCc2c(c(Nc3ccc(-c4cnn(C)c4)cc3F)nn2[C@@H]2CCOC2)C1 [Compound 13]

>  <assayed_system>
H23 cells (pulmonary adenocarcinoma derived, SMARCA2/A4 deficient)

>  <result>
92%

$$$$
>  <compound>
CNC(=O)N1CCc2c(c(N3CCCc4cc(-c5cnn(C)c5)c(C(F)F)cc43)nn2C2CCOCC2)C1 [Compound 8]

>  <assayed_system>
H23 cells (pulmonary adenocarcinoma derived, SMARCA2/A4 deficient)

>  <result>
77%

$$$$

----------
# assayed_system: CBP bromodomain (Homo sapiens (Human), UniProt Q92793)
# Sequence (Q92793 1085-1192): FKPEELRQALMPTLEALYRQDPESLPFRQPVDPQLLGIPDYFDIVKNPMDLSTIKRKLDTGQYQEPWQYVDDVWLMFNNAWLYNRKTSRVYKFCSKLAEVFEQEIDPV
# assay_notes: BRD inhibition experiment, CBP bromodomain TR-FRET Assay Kit

>  <smiles_str>
CNC(=O)N1CCc2c(c(N3CCCc4cc(-c5cnn(C)c5)c(C(F)F)cc43)nn2C2CCOCC2)C1

>  <IC50>
< 25 nM

$$$$
>  <smiles_str>
Cn1cc(C(=O)Nc2ccc3c(c2)OCCO3)c2ccccc2c1=O

>  <IC50>
< 25 nM

$$$$

----------
# Tested on: G-401 cells (malignant rhabdoid tumor derived, SMARCB1 deficient)
# assay_notes: Cell growth suppression experiment (CellTiter-Glo), G-401 cells
# condition_parameters: Homo sapiens, G-401, 72 h, read-out: IC50 G-401, G-401 cells, cultured for 3 days, CellTiter-Glo cell survival
pIC50: −log10 of the molar value.

>  <compound>
COC(=O)N1c2ccc3c(nc(Cc4ccccc4)n3[C@@H]3CCC[C@@H](C(=O)O)C3)c2CC[C@@H]1C [Compound 11]

>  <pIC50>
< 5.00

$$$$
>  <compound>
CNC(=O)N1CCc2c(c(N3CCCc4cc(-c5cnn(C)c5)c(C(F)F)cc43)nn2C2CCOCC2)C1 [Compound 8]

>  <pIC50>
< 5.00

$$$$
>  <compound>
CC(=O)N1CCc2c(c(Nc3ccc(-c4cnn(C)c4)cc3F)nn2[C@@H]2CCOC2)C1 [Compound 13]

>  <pIC50>
< 5.00

$$$$
